Test system: Trypanosoma cruzi
Assay name: GSK_TCAKS: pIC50 Trypanosoma cruzi Imaging: Amastigotes/Cell. […] Cells were then washed once with PBS before infection. T. cruzi trypomastigotes, collected at days 5 to 8 after infection from LLC-MK2 parasite infected cultures, were allowed to swim out for 4h at 37C from a centrifuged pellet (2,500 rpm/10 min/room temperature). Trypomastigotes were then collected and counted in a CASY Cell Counter. Trypomastigotes, in supplemented DMEM, were added to H9c2 cultures in a multiplicity of infection of 1 and incubated for 18 h. Cells were washed once with PBS before incubation of the infected H9c2 monolayer with trypsin (Life-Technologies) to detach cells from the flask. Cells were counted in a CASY Cell Counter using a 150 um capillary and their density set at 5 * 10^4 cells per mL in supplemented assay DMEM. Infected H9c2 were dispensed into 384-well poly-lysine coated assay plates at 50uL per well using a Multidrop Combi dispenser. After seeding them, the plates were incubated at 37C, 5% CO2 for 72h. Cultures were then fixed and stained by addition of 50 uL of a solution containing 8% formaldehyde and 4 uM DRAQ5 DNA dye (BioStatus, UK) per well. […] Five images were collected per well for reliable statistical analysis. Automated image analysis was performed with a script developed on Acapella High Content Imaging and Analysis Software (PerkinElmer). Output: number of amastigotes per cell as infection level measurement.
Type: functional, organism-based, Rattus norvegicus
Particulars: H9c2, 4 h
# binning rule on IC50: low (below 300 nM), middle (300 nM to below 10000 nM), high (10000 nM or more)

COc1cccc(S(=O)(=O)Nc2ccc3c(c2)CC(N2CCC(NC(=O)C4CC4)CC2)C3)c1 (stereo not given) :: high
Cn1nc([N+](=O)[O-])nc1Oc1ccc(C(=O)c2ccccc2)cc1 :: low
COc1ncc(-c2ccc3nccc(-c4ccncc4)c3c2)cc1NS(=O)(=O)C1CC1 :: middle
O=C(Nc1nc(-c2ccccn2)cs1)c1ccc(S(=O)(=O)N2CCCCC2)cc1 :: middle
CC(C)C[C@H](NC(=O)c1ccc(-c2ccccc2)o1)C(=O)NC1(C#N)CC1 :: high
O=C(NCC(c1cccs1)N1CCOCC1)c1ccc([N+](=O)[O-])o1 (stereo not given) :: high
Cc1ccc(NC(=O)C(C)n2nc([N+](=O)[O-])c(Br)c2C)cc1Cl (stereo not given) :: middle
CC(C)c1cc(Nc2cc(Cc3ccccc3)nc(N[C@H]3CC[C@H](O)CC3)n2)n[nH]1 :: low
CNc1c(C(N)=O)c(-c2ccc3scnc3c2)nn1CC(F)(F)F :: low
COc1ccc(CN2C(=O)C(O)(CC(=O)c3ccncc3)c3cc(Br)ccc32)cc1OC (stereo not given) :: high
NCC(Cc1ccccc1)NC(=O)c1cnc(-c2c[nH]c3ncccc23)s1 (stereo not given) :: high
CCC1Oc2cc(S(=O)(=O)N(C)CC(=O)N3CCc4ccccc4C3)c(C)cc2NC1=O (stereo not given) :: low
CC(Cn1ccnc1)NC(=O)COc1ccc(Cl)c(Cl)c1 (stereo not given) :: middle
CCCNC(=O)Nc1cccc(-c2nc3ncccc3o2)c1 :: middle
O=C(Cn1cnc([N+](=O)[O-])n1)Nc1ccc(Cl)cc1C(=O)c1ccccc1 :: middle
